# testedOn: CDK6/D3 (Homo sapiens, UniProt Q00534)
# Sequence (Q00534 whole entry, species assumed): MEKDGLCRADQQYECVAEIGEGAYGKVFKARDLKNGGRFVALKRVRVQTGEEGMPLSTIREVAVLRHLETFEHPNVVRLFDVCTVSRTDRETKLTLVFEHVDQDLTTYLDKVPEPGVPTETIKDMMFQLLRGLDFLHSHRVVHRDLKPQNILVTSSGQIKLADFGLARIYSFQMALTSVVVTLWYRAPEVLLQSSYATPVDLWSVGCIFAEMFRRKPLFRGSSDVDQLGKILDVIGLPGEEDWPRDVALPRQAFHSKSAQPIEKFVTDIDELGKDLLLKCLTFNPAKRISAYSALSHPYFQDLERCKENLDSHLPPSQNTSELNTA
# Sequence (P30281 whole entry partner, species assumed): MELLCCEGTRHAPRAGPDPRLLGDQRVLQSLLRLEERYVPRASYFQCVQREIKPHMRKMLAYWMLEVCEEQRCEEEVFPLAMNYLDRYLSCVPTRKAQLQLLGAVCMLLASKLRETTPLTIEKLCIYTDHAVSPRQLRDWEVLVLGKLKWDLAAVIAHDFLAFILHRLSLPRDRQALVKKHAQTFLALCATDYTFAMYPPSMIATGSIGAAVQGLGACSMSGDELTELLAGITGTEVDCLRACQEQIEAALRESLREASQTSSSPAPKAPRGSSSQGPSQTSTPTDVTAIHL
# procedureText: ADP Glo kinase assay, CDK6/D3
# Type: biochemical
# cond: CDK6D3; compound at 1 μM (values marked *); read-out: residual enzymatic activity (%) at 1 μM*
measuredParameter: remaining activity at 1 µM (%)
Kindly provide the numeric value in % only, without the unit symbol.

// worked examples, remaining activity at 1 µM included
1) CC(=O)N1CCN(c2ccc(Nc3nccc(-c4cnc5ccc(-c6cnn(C)c6)cn45)n3)nc2)CC1 [Cmpd 27]    70
2) CC(=O)N1CCN(c2ccc(Nc3nccc(-c4cnc5ccc(-c6ccoc6)cn45)n3)nc2)CC1 [Cmpd 25]    52
3) CN1CCN(c2ccc(Nc3nccc(-c4cnc5ccc(Br)cn45)n3)nc2)CC1 [Cmpd 45]    46

Field: next compound
Sample CC(=O)N1CCN(c2ccc(Nc3nccc(-c4cnc5ccc(-c6cc7ccccc7[nH]6)cn45)n3)nc2)CC1 [Cmpd 37] — what was its remaining activity at 1 µM?
78

----------
Items are presented alongside their recorded remaining activity at 1 µM.
# testedOn: CDK4/D1 (Homo sapiens, UniProt P11802)
# Sequence (P11802 whole entry, species assumed): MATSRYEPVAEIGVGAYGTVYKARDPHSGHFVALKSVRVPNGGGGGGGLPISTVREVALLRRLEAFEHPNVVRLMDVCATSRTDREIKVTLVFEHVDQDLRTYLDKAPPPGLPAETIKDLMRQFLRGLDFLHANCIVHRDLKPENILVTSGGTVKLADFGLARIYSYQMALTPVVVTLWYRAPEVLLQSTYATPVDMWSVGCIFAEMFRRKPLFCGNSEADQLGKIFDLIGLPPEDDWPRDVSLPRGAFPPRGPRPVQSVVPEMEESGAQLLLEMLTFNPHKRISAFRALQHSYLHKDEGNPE
# Sequence (P24385 whole entry partner, species assumed): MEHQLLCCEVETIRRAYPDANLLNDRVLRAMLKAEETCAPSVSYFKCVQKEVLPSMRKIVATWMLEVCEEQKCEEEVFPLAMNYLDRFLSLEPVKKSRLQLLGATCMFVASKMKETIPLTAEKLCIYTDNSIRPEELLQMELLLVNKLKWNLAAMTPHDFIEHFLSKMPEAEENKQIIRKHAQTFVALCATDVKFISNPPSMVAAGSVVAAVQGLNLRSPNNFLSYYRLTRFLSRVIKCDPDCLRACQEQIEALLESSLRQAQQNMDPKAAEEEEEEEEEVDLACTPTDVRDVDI
# procedureText: ADP Glo kinase assay, CDK4/D1
# Type: biochemical
# cond: CDK4D1; compound at 1 μM (values marked *); read-out: residual enzymatic activity (%) at 1 μM*
Kindly provide the numeric value in % only, without the unit symbol.

1. CC(=O)N1CCN(c2ccc(Nc3ncc(F)c(-c4cnc5ccc(C(F)(F)F)cn45)n3)nc2)CC1    67
2. Brc1ccc(Nc2nccc(-c3cnc4ccccn34)n2)nc1    72
3. CC(=O)N1CCN(c2ccc(Nc3ncc(F)c(-c4cnc5ccccn45)n3)nc2)CC1    59
4. CC(=O)N1CCN(c2ccc(Nc3nccc(-c4cnc5ccc(-c6ccsc6)cn45)n3)nc2)CC1    73
5. CC(=O)N1CCN(c2ccc(Nc3nccc(-c4cnc5ccc(-c6coc7ccccc67)cn45)n3)nc2)CC1    60
6. CC(=O)N1CCN(c2ccc(Nc3nccc(-c4cnc5ccc(-c6c[nH]c7ncccc67)cn45)n3)nc2)CC1    52

Sample "CC(=O)N1CCN(c2ccc(Nc3nccc(-c4cnc5ccc(-c6cccc7[nH]ccc67)cn45)n3)nc2)CC1" — what was its remaining activity at 1 µM?
58

Sample "CN1CCN(c2ccc(Nc3nccc(-c4cnc5ccc(-c6ccccc6)cn45)n3)nc2)CC1" — what was its remaining activity at 1 µM?
63

----------
# testedOn: CDK6/D3 (Homo sapiens)
# procedureText: ADP Glo kinase assay, CDK6/D3
# Assay type: biochemical
# cond: CDK6D3; compound at 10 μM; read-out: residual enzymatic activity (%) at 10 μM
Items are presented alongside their recorded remaining activity at 10 µM.
Kindly provide the numeric value in % only, without the unit symbol.

// worked examples, remaining activity at 10 µM included
1) COc1ncc(-c2ccc3ncc(-c4ccnc(Nc5ccc(N6CCN(C(C)=O)CC6)cn5)n4)n3c2)cn1 [Cmpd 19]    65
2) CC(=O)N1CCN(c2ccc(Nc3nccc(-c4cnc5ccc(F)cn45)n3)nc2)CC1 [Cmpd 8]    40
3) CC(=O)N1CCN(c2ccc(Nc3nccc(-c4cnc5ccc(-c6cn[nH]c6)cn45)n3)nc2)CC1 [Cmpd 24]    61

Field: next molecule
Sample CC(=O)N1CCN(c2ccc(Nc3nccc(-c4cnc5ccc(-c6ccccc6)cn45)n3)nc2)CC1 [Cmpd 14] — what was its remaining activity at 10 µM?
92
